- testedSystem: Adenosine receptor A2b (Homo sapiens)
- Sequence (P29275 whole entry): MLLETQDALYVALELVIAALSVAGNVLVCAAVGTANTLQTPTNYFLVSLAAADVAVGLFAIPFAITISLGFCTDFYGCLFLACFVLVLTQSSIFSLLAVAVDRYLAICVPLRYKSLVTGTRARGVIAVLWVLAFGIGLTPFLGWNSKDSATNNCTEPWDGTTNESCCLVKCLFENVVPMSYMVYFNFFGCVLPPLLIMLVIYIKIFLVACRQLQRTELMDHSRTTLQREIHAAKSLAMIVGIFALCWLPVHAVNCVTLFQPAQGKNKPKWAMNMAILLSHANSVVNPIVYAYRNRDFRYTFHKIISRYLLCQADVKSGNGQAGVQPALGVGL
- measurementProtocol: Agonist activity at human adenosine A2B receptor expressed in CHO cells assessed as inhibition of NECA-stimulated adenylyl cyclase activity
pKi: −log10 of the molar value.
measuredMetric: pKi

>  <molecule>
O[C@@H]1[C@H](O)[C@@H](CCl)O[C@H]1n1cnc2c(NC3CC4CCC3C4)nc(Cl)nc21 (mixture of isomers)

>  <measuredMetric>
pKi

>  <resultValue>
< 5.00

$$$$

Request: Look at this molecule and give its reported pKi. O[C@@H]1[C@H](O)[C@@H](CCl)O[C@H]1n1cnc2c(NC3CCCC3)nc(Cl)nc21
Response: 5.32

Request: // repeat for C[C@@]1(O)[C@H](O)[C@@H](CCl)O[C@H]1n1cnc2c(NC3CCCC3)ncnc21 and report
Response: < 5.00

Request: // repeat for O[C@@H]1[C@H](O)[C@@H](CSc2ccccc2F)O[C@H]1n1cnc2c(NC3CCOC3)ncnc21 (some centres undefined) and report
Response: < 5.00

* * *

- testedSystem: Adenosine receptors; A1 & A3 (Homo sapiens) (UniProt P30542+P0DMS8)
- measurementProtocol: Selectivity of Ki for human recombinant adenosine A3 receptor to Ki for human recombinant adenosine A1 receptor
measuredMetric: Ratio Ki

Guide cases for Ratio Ki, answers given:
>  <compound>
O[C@@H]1[C@H](O)[C@@H](CSc2ccccc2F)O[C@H]1n1cnc2c(NC3CCCC3)ncnc21

>  <Ratio Ki>
5

$$$$
>  <compound>
O[C@@H]1[C@H](O)[C@@H](CCl)O[C@H]1n1cnc2c(NC3CC4CCC3C4)nc(Cl)nc21 (mixture of isomers)

>  <Ratio Ki>
875

$$$$
>  <compound>
C[C@@]1(O)[C@H](O)[C@@H](CCl)O[C@H]1n1cnc2c(NC3CC4CCC3C4)nc(Cl)nc21 (mixture of isomers)

>  <Ratio Ki>
644

$$$$
>  <compound>
C[C@@]1(O)[C@H](O)[C@@H](CSc2ccccc2F)O[C@H]1n1cnc2c(NC3CCCC3)nc(Cl)nc21

>  <Ratio Ki>
0.5

$$$$
>  <compound>
C[C@@]1(O)[C@H](O)[C@@H](CO)O[C@H]1n1cnc2c(NC3CC4CCC3C4)ncnc21 (mixture of isomers)

>  <Ratio Ki>
616

$$$$
>  <compound>
OC[C@H]1O[C@@H](n2cnc3c(NC4CC5CCC4C5)ncnc32)[C@H](O)[C@@H]1O (mixture of isomers)

>  <Ratio Ki>
187

$$$$
>  <compound>
C[C@@]1(O)[C@H](O)[C@@H](CSc2ccccc2F)O[C@H]1n1cnc2c(NC3CC4CCC3C4)ncnc21 (mixture of isomers)

>  <Ratio Ki>
3

$$$$
>  <compound>
C[C@@]1(O)[C@H](O)[C@@H](CSc2ccccc2F)O[C@H]1n1cnc2c(NC3CC4CCC3C4)nc(Cl)nc21 (mixture of isomers)

>  <Ratio Ki>
1.5

$$$$

I: O[C@@H]1[C@H](O)[C@@H](CSc2ccccc2F)O[C@H]1n1cnc2c(NC3CCCC3)nc(Cl)nc21
II: OC[C@H]1O[C@@H](n2cnc3c(NC4CC5CCC4C5)nc(Cl)nc32)[C@H](O)[C@@H]1O (mixture of isomers)
Request: Which of the two gives a bigger number for Ratio Ki: I or II ? Output the label that corresponds to your choice.
Response: II

* * *

- testedSystem: Adenosine receptor A2a (Homo sapiens)
- measurementProtocol: Displacement of [3H]NECA from human recombinant adenosine A2A receptor expressed in CHO cells
measuredMetric: Ki (µM)

>  <compound>
OC[C@H]1O[C@@H](n2cnc3c(NC4CC5CCC4C5)ncnc32)[C@H](O)[C@@H]1O (mixture of isomers)

>  <Ki (µM)>
1.27

$$$$

P: O[C@@H]1[C@H](O)[C@@H](CCl)O[C@H]1n1cnc2c(NC3CC4CCC3C4)nc(Cl)nc21 (mixture of isomers)
Q: OC[C@H]1O[C@@H](n2cnc3c(NC4CC5CCC4C5)nc(Cl)nc32)[C@H](O)[C@@H]1O (mixture of isomers)
R: C[C@@]1(O)[C@H](O)[C@@H](CCl)O[C@H]1n1cnc2c(NC3CC4CCC3C4)ncnc21 (mixture of isomers)
S: C[C@@]1(O)[C@H](O)[C@@H](CCl)O[C@H]1n1cnc2c(NC3CCCC3)nc(Cl)nc21
Request: Highest Ki first, then in falling order down to the smallest. Answer format: the labels, in the requested order.
Response: R, S, P, Q
(R: 24 µM, S: 16.2 µM, P: 2.05 µM, Q: 0.797 µM)

* * *

- testedSystem: Adenosine receptor A2a (Homo sapiens, UniProt P29274)
- Sequence (P29274 whole entry): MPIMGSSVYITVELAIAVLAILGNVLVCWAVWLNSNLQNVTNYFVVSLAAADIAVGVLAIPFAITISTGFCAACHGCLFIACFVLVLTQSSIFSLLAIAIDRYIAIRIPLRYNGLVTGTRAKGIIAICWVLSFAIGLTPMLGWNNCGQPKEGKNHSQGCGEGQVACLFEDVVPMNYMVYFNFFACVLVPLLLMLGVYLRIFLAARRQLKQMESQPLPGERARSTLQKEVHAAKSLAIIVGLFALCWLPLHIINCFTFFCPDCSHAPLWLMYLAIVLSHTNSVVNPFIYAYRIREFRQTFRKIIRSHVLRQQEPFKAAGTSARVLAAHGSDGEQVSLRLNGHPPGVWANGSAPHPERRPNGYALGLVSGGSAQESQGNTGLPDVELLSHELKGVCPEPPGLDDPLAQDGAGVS
- measurementProtocol: Displacement of [3H]NECA from human recombinant adenosine A2A receptor expressed in CHO cells
measuredMetric: Ki (µM)

1: O[C@@H]1[C@H](O)[C@@H](CCl)O[C@H]1n1cnc2c(NC3CCCC3)nc(Cl)nc21
2: O[C@@H]1[C@H](O)[C@@H](CCl)O[C@H]1n1cnc2c(NC3CCCC3)ncnc21
3: C[C@@]1(O)[C@H](O)[C@@H](CO)O[C@H]1n1cnc2c(NC3CC4CCC3C4)ncnc21 (mixture of isomers)
Request: Rank by Ki (largest to smallest). Answer format: the labels, in the requested order.
Response: 3, 1, 2
(3: 8.78 µM, 1: 2.16 µM, 2: 0.837 µM)

1: O[C@@H]1[C@H](O)[C@@H](CSc2ccccc2F)O[C@H]1n1cnc2c(NC3CCOC3)ncnc21 (some centres not stated)
2: O[C@@H]1[C@H](O)[C@@H](CSc2ccccc2F)O[C@H]1n1cnc2c(NC3CCCC3)ncnc21
Request: Problem: Given the entries 1 and 2 , determine which has the lower reported Ki. Output the label that corresponds to your choice.
Response: 2

A: C[C@@]1(O)[C@H](O)[C@@H](CCl)O[C@H]1n1cnc2c(NC3CC4CCC3C4)nc(Cl)nc21 (mixture of isomers)
B: C[C@@]1(O)[C@H](O)[C@@H](CO)O[C@H]1n1cnc2c(NC3CC4CCC3C4)nc(Cl)nc21 (mixture of isomers)
Request: Problem: Given the entries A and B , determine which has the lower reported Ki. Output the label that corresponds to your choice.
Response: B
(B: 11.8 µM, A: 31.6 µM)

* * *

- testedSystem: Adenosine receptor A1 (Homo sapiens, UniProt P30542)
- Sequence (P30542 whole entry): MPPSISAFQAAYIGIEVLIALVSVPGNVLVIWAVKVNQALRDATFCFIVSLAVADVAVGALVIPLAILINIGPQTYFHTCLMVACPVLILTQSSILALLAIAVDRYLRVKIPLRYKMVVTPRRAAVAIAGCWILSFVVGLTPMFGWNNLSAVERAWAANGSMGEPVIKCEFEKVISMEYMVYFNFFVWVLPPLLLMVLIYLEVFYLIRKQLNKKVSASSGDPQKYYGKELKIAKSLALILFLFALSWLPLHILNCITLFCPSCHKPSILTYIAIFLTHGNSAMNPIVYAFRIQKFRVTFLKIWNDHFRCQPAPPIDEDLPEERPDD
- measurementProtocol: Displacement of [3H]CCPA from human recombinant adenosine A1 receptor expressed in CHO cells
pKi: −log10 of the molar value.
measuredMetric: pKi

Guide cases for pKi, answers given:
>  <molecule>
C[C@@]1(O)[C@H](O)[C@@H](CSc2ccccc2F)O[C@H]1n1cnc2c(NC3CC4CCC3C4)ncnc21 (mixture of isomers)

>  <testedSystem>
Adenosine receptor A1 (Homo sapiens, UniProt P30542)

>  <resultValue>
5.97

$$$$
>  <molecule>
C[C@@]1(O)[C@H](O)[C@@H](CSc2ccccc2F)O[C@H]1n1cnc2c(NC3CCCC3)ncnc21

>  <testedSystem>
Adenosine receptor A1 (Homo sapiens, UniProt P30542)

>  <resultValue>
5.77

$$$$
>  <molecule>
OC[C@H]1O[C@@H](n2cnc3c(NC4CC5CCC4C5)ncnc32)[C@H](O)[C@@H]1O (mixture of isomers)

>  <testedSystem>
Adenosine receptor A1 (Homo sapiens, UniProt P30542)

>  <resultValue>
9.27

$$$$
>  <molecule>
C[C@@]1(O)[C@H](O)[C@@H](CO)O[C@H]1n1cnc2c(NC3CC4CCC3C4)nc(Cl)nc21 (mixture of isomers)

>  <testedSystem>
Adenosine receptor A1 (Homo sapiens, UniProt P30542)

>  <resultValue>
8.16

$$$$
>  <molecule>
C[C@@]1(O)[C@H](O)[C@@H](CSc2ccccc2F)O[C@H]1n1cnc2c(NC3CC4CCC3C4)nc(Cl)nc21 (mixture of isomers)

>  <testedSystem>
Adenosine receptor A1 (Homo sapiens, UniProt P30542)

>  <resultValue>
5.53

$$$$
>  <molecule>
O[C@@H]1[C@H](O)[C@@H](CCl)O[C@H]1n1cnc2c(NC3CCCC3)nc(Cl)nc21

>  <testedSystem>
Adenosine receptor A1 (Homo sapiens, UniProt P30542)

>  <resultValue>
8.81

$$$$
>  <molecule>
O[C@@H]1[C@H](O)[C@@H](CSc2ccccc2F)O[C@H]1n1cnc2c(NC3CCCC3)nc(Cl)nc21

>  <testedSystem>
Adenosine receptor A1 (Homo sapiens, UniProt P30542)

>  <resultValue>
6.59

$$$$
>  <molecule>
C[C@@]1(O)[C@H](O)[C@@H](CCl)O[C@H]1n1cnc2c(NC3CC4CCC3C4)ncnc21 (mixture of isomers)

>  <testedSystem>
Adenosine receptor A1 (Homo sapiens, UniProt P30542)

>  <resultValue>
8.04

$$$$
>  <molecule>
C[C@@]1(O)[C@H](O)[C@@H](CCl)O[C@H]1n1cnc2c(NC3CC4CCC3C4)nc(Cl)nc21 (mixture of isomers)

>  <testedSystem>
Adenosine receptor A1 (Homo sapiens, UniProt P30542)

>  <resultValue>
8.04

$$$$
>  <molecule>
O[C@@H]1[C@H](O)[C@@H](CSc2ccccc2F)O[C@H]1n1cnc2c(NC3CCOC3)ncnc21 (stereo partly drawn)

>  <testedSystem>
Adenosine receptor A1 (Homo sapiens, UniProt P30542)

>  <resultValue>
6.60

$$$$

a: C[C@@]1(O)[C@H](O)[C@@H](CCl)O[C@H]1n1cnc2c(NC3CCCC3)nc(Cl)nc21
b: C[C@@]1(O)[C@H](O)[C@@H](CSc2ccccc2F)O[C@H]1n1cnc2c(NC3CCCC3)nc(Cl)nc21
Request: Problem: Given the entries a and b , determine which has the lower reported pKi. Output the label that corresponds to your choice.
Response: b
(b: 5.67, a: 7.89)

P: O[C@@H]1[C@H](O)[C@@H](CCl)O[C@H]1n1cnc2c(NC3CC4CCC3C4)nc(Cl)nc21 (mixture of isomers)
Q: C[C@@]1(O)[C@H](O)[C@@H](CO)O[C@H]1n1cnc2c(NC3CC4CCC3C4)ncnc21 (mixture of isomers)
R: O[C@@H]1[C@H](O)[C@@H](CSc2ccccc2F)O[C@H]1n1cnc2c(NC3CCCC3)ncnc21
Request: Put these in order: smallest pKi first, largest last. Answer format: the labels, in the requested order.
Response: R, Q, P
